System: L-lactate dehydrogenase B chain (Sus scrofa)
Sequence (P00336 whole entry): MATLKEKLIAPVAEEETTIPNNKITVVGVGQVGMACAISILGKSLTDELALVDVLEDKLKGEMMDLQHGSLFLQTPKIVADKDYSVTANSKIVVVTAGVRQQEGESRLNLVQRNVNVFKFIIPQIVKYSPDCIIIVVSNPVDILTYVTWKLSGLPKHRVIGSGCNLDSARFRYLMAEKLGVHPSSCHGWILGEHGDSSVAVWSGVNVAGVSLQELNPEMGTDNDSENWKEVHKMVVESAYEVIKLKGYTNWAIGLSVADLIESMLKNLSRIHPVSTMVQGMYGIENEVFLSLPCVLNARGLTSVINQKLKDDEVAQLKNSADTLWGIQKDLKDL
Assay name: Inhibition of porcine heart LDH using pyruvate as substrate and NADH as cofactor measured after 2 hrs by stopped-flow spectrometric method
Reported endpoint: pEC50
Note: pEC50 values are expressed as the negative base-10 logarithm of concentration in M.

Enquiry: # lookup: pEC50 of NC(=O)c1cc(O)cc(O)c1
Return: 3.15

Enquiry: Next: CC(=O)Nc1cccc(O)c1
Return: 4.11
